target: D(3) dopamine receptor (Rattus norvegicus, UniProt P19020); set-up: species or system Tissue
Sequence (P19020 whole entry): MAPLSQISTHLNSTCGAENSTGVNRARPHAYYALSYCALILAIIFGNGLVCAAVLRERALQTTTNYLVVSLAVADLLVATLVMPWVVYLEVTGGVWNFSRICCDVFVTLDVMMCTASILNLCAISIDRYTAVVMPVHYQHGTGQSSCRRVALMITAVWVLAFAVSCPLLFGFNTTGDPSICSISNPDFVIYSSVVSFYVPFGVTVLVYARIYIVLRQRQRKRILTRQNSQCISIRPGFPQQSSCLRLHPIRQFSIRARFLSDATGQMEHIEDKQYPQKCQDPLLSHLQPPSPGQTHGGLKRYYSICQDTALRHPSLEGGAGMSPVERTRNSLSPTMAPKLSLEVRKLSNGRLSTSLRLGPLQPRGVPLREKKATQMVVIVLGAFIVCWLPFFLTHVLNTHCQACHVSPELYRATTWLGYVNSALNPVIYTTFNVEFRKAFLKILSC
Reported pKi is given for each of the following compounds.
The scale used: pKi is minus the common logarithm of the concentration in molar units.

| COMPOUND | pKi |
| --- | --- |
| OCCN1CCN(C2Cn3cccc3Sc3ccc(F)cc32)CC1 (racemic) | 7.89 |

Let's switch to this compound now.
INPUT: What pKi appears in the records for this compound with D(3) dopamine receptor (Rattus norvegicus, UniProt P19020)? CCN1CCN(C2Cn3cccc3Sc3ccc(F)cc32)CC1 (racemic)
OUTPUT: 7.74

###

molecular target: D(1A) dopamine receptor (Rattus norvegicus)
Sequence (P18901 whole entry): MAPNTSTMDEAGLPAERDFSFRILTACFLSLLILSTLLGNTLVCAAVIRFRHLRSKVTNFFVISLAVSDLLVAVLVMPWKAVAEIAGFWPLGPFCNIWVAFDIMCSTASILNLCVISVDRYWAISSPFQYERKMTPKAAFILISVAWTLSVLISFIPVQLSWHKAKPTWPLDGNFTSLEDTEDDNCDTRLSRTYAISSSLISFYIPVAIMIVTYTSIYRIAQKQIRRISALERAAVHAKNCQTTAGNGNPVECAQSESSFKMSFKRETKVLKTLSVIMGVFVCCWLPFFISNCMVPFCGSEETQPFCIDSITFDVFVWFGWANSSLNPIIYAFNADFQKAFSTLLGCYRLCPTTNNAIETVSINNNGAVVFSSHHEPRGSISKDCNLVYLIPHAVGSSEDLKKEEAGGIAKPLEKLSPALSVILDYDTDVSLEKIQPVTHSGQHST
Ki strictly less than 30 nM = Condition met. Otherwise Condition not met.

Check out these entries, answers already filled in.
| COMPOUND | TARGET ENTITY | DISCRETE LABEL |
| --- | --- | --- |
| OCCN1CCN(C2Cn3cccc3Sc3ccc(Cl)cc32)CC1 (racemic) | D(1A) dopamine receptor (Rattus norvegicus) | Condition met |
| CCN1CCN(C2Cn3cccc3Sc3ccc(Cl)cc32)CC1 (racemic) | D(1A) dopamine receptor (Rattus norvegicus) | Condition met |
| CN1CCCN(C2Cn3cccc3Sc3ccc(Cl)cc32)CC1 (racemic) | D(1A) dopamine receptor (Rattus norvegicus) | Condition not met |

INPUT: Quick check: Ki of CN1CCN([C@H]2Cc3ccccc3Sc3ccc(Cl)cc32)CC1 under 30 nM?
OUTPUT: Condition met

INPUT: Lab note: confirm whether the reported Ki for this compound is below 30 nM, equality not counting. compound: CN1CCN(C2Cn3cccc3Sc3ccc(Br)cc32)CC1 (racemic)
OUTPUT: Condition met
